Data origin, for the record: patent US20250136722A1

molecular target: CHOK1 cells engineered to overexpress human CCR2 (Homo sapiens, UniProt P41597); construct: expressed in transfected cells; host or cells: CHOK1 cells; experiment: Antibody dependent cellular cytotoxicity (ADCC) reporter assay (Example 199); type: cell-based; conditions: with anti-cotinine antibody SEQ ID NO: 11/12; CHOK1-human CCR2 target cells, Jurkat FcγRIIIa NFAT-luciferase reporter cells; 12-18 hours; read-out: ADCC Reporter Assay pEC50 (converted)
Measured EC50 by item

{"columns": ["molecule", "output-unit", "EC50"],
 "data": [
  ["CC(C)N(C)[C@@H]1CC[C@H](N2CC[C@H](Nc3ncnc4ccc(C(F)(F)F)cc34)C2=O)[C@H](NC(=O)C2CCN(C3CCN(CCOCCOCCNC(=O)[C@H]4CC(=O)N(C)[C@@H]4c4cccnc4)CC3)CC2)C1 [Example 90]", "nM", 2],
  ["CC(C)N(C)[C@@H]1CC[C@H](N2CC[C@H](Nc3ncnc4ccc(C(F)(F)F)cc34)C2=O)[C@H](NC(=O)[C@H]2CC[C@H](c3ccc(C(=O)NCCOCCOCCNC(=O)[C@H]4CC(=O)N(C)[C@@H]4c4cccnc4)nc3)CC2)C1 [Example 141]", "nM", 2],
  ["CC(C)N(C)[C@@H]1CC[C@H](N2CC[C@H](Nc3ncnc4ccc(C(F)(F)F)cc34)C2=O)[C@H](NC(=O)[C@H]2CC[C@@H](N3CCC(C(=O)NCCOCCOCCNC(=O)[C@H]4CC(=O)N(C)[C@@H]4c4cccnc4)CC3)CC2)C1 [Example 134]", "nM", 0.0631],
  ["CC(C)N(C)[C@@H]1CC[C@H](N2CC[C@H](Nc3ncnc4ccc(C(F)(F)F)cc34)C2=O)[C@H](NC(=O)[C@H]2CC[C@H](c3ccc(C(=O)NCCOCCOCCNC(=O)[C@H]4CC(=O)N(C)[C@@H]4c4cccnc4)cn3)CC2)C1 [Example 139]", "nM", 3.98],
  ["CC(C)N(C)[C@@H]1CC[C@H](N2CC[C@H](Nc3ncnc4ccc(C(F)(F)F)cc34)C2=O)[C@H](NC(=O)CCOCCNC(=O)CCCO[C@H]2CC[C@@H](OCCNC(=O)[C@H]3CC(=O)N(C)[C@@H]3c3cccnc3)CC2)C1 [Example 6]", "nM", 0.378],
  ["CC(C)N(C)[C@@H]1CC[C@H](N2CC[C@H](Nc3ncnc4ccc(C(F)(F)F)cc34)C2=O)[C@H](Nc2c(NCCOCCOCCOCCOCCOCCNC(=O)[C@H]3CC(=O)N(C)[C@@H]3c3cccnc3)c(=O)c2=O)C1 [Example 85]", "nM", 8.24],
  ["CC(C)N(C)[C@@H]1CC[C@H](N2CC[C@H](Nc3ncnc4ccc(C(F)(F)F)cc34)C2=O)[C@H](NC(=O)CCNC2CCC3(CC2)CCN(CCCNC(=O)[C@H]2CC(=O)N(C)[C@@H]2c2cccnc2)CC3)C1 [Example 138]", "nM", 3.98],
  ["CN1C(=O)C[C@H](C(=O)NCCO[C@H]2CC[C@@H](OCCCC(=O)N[C@H]3CC[C@H](C(=O)N[C@@H]4C[C@H](NC(C)(C)C)CC[C@@H]4N4CC[C@H](Nc5ncnc6ccc(C(F)(F)F)cc56)C4=O)CC3)CC2)[C@H]1c1cccnc1 [Example 2]", "nM", 5.06]
]}
